Tgt: DNA polymerase β (Rattus norvegicus, UniProt P06766)
Experimental Details: Kinetic analysis of pol. β inhibition
Assay type: biochemical
Condition Notes: nucleotide substrate dTTP, from Dixon plot
Readout Type: pKi
# pKi is unitless: minus log10 of the molar concentration; print number only

Given the entry CCCCCCCCCCCCCCCCCC(=O)OC[C@H](CO[C@H]1O[C@H](CS(=O)(=O)O)[C@@H](O)[C@H](O)[C@H]1O)OC(=O)CCCCCCCCCCCCCCCCC , report its measured pKi.
4.44

* * *

Tgt: DNA polymerase α (Bos taurus, UniProt A0AAA9TD94)
Experimental Details: DNA polymerase assay, pol. α
Format: biochemical, calf
Condition Notes: read-out: IC50 Pol. α; 50%-inhibitory concentration; Table I
Readout Type: IC50 (µM)
Note: unit µM is implicit; provide only the numeric part.

Please tell me: IC50 of CCCCCCCCCCCCCCCCCC(=O)OC[C@H](CO[C@H]1O[C@H](CS(=O)(=O)O)[C@@H](O)[C@H](O)[C@H]1O)OC(=O)CCCCCCCCCCCCCCCCC , system DNA polymerase α (Bos taurus, UniProt A0AAA9TD94)?
0.4

// map CCCCCCCCCCCCCC(=O)OCC(O)CO (stereo not shown) to recorded IC50 (system: DNA polymerase α (Bos taurus, UniProt A0AAA9TD94))
750

Short answer please: IC50, DNA polymerase α (Bos taurus, UniProt A0AAA9TD94), entry CCCCCCCCCCCCCCCC(=O)OCC(CO)OC(=O)CCCCCCCCCCCCCCC (stereo not shown)
470

* * *

Give measured MIC Pol. α for each item. Keep answers brief.
Tgt: DNA polymerase α (Bos taurus)
Experimental Details: DNA polymerase assay, pol. α
Assay type: biochemical, calf
Condition Notes: Minimum inhibitory concentration: dose that resulted in inhibition of 80% or more of the activity; Table I
Note: unit µM is implicit; provide only the numeric part.

What does the record list as MIC Pol. α for CCCCCCCCCCCCCC(=O)O [Myristic acid (14:0), Myristic acid, reference compound] ?
180

Quick one: MIC Pol. α for CCCCCCCCCCCCCCCCCC(=O)O [Stearic acid (18:0), Stearic acid, reference compound] ?
35

# get_value(readout='MIC Pol. α', item= CCCCCCCCCCCCCCCC(=O)O [Palmitic acid (16:0), Palmitic acid, reference compound] )
100

* * *

Tgt: DNA polymerase α (Bos taurus, UniProt A0AAA9TD94)
Sequence (A0AAA9TD94 1-1441): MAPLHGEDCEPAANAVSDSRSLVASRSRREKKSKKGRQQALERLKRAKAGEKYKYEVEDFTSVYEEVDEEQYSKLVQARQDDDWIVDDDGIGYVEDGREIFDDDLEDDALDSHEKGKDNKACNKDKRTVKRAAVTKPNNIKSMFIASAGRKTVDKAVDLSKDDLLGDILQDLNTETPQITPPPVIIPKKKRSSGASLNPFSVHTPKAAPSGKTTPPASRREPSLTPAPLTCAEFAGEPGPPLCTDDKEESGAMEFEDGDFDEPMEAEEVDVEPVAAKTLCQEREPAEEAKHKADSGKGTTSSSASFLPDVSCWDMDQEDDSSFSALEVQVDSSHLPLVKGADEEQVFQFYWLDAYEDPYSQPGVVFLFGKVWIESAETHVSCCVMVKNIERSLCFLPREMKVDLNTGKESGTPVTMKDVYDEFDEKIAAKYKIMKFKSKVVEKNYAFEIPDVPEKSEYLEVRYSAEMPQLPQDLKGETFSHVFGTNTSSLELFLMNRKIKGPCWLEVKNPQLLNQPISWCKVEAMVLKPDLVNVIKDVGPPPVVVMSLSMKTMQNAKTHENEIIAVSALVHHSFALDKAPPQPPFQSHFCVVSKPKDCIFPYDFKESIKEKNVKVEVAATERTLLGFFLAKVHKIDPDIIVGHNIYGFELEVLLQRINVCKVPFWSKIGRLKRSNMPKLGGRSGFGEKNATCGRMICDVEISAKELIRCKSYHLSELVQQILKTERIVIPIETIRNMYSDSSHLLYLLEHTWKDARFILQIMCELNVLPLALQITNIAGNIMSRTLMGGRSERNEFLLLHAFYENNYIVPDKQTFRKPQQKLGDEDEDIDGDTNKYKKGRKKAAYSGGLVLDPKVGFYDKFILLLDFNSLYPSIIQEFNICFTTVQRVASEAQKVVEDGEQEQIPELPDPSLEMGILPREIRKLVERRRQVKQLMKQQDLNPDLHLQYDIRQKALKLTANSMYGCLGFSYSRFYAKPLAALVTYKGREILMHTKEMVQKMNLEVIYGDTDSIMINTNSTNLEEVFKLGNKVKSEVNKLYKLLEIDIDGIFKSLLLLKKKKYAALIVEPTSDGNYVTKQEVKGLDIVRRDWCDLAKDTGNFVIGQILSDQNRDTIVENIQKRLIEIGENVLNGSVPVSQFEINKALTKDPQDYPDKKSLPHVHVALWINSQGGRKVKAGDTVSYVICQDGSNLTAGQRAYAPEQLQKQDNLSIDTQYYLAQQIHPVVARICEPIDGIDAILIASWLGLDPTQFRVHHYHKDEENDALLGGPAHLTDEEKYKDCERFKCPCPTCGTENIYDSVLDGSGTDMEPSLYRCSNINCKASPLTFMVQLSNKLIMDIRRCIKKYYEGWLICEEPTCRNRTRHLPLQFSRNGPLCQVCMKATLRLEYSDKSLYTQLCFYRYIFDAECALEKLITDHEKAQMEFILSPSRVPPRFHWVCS
Experimental Details: Kinetic analysis of pol. α inhibition
Type: biochemical, calf
Condition Notes: template-primer poly(dA)/oligo(dT)12-18, from Dixon plot
Readout Type: Ki (nM)
Give the value, in units of nM, as a plain number.

// map CCCCCCCCCCCCCCCCCC(=O)OC[C@H](CO[C@H]1O[C@H](CS(=O)(=O)O)[C@@H](O)[C@H](O)[C@H]1O)OC(=O)CCCCCCCCCCCCCCCCC to recorded Ki (system: DNA polymerase α (Bos taurus, UniProt A0AAA9TD94))
200
